Measured values drawn from ChEMBL document CHEMBL1148136 for this set.

Listed molecules paired with reported IC50
Test: Growth inhibition of mouse Hepa-1c1c7 cells by crystal violet staining
Assay type: cell-based
Conditions: Mus musculus, Hepa-1c1c7
Write the number in µM without appending the unit.

Look over these answered cases.
{"columns": ["molecule", "units_of_measure", "endpoint_result"],
 "data": [
  ["CC1=C(C)C(=O)O[C@@H]([C@]2(C)OC(O)[C@]34CC[C@H]5[C@@H](CC=C6[C@@H](O)C=CC(=O)[C@@]65C)[C@@H]3CC[C@H]24)C1 (some centres not stated) [WITHAPHYSALIN G]", "µM", 9.83],
  ["CC1=C(C)C(=O)O[C@@H]([C@@H](C)[C@H]2[C@@H](O)C[C@H]3[C@@H]4C[C@H]5O[C@]56[C@@H](O)C=CC(=O)[C@]6(C)[C@H]4CC[C@]23C)C1", "µM", 0.66],
  ["CC1=C(C)C(=O)O[C@@H]([C@](C)(O)[C@H]2CC[C@H]3[C@@H]4[C@@H](O)[C@H]5O[C@]56[C@@H](O)C=CC(=O)[C@]6(C)[C@H]4CC[C@]23C)C1", "µM", 1.27]
]}

Query string: Identify measured IC50 corresponding to `CC1=C(C)C(=O)O[C@@H]([C@](C)(O)[C@H]2CC[C@H]3[C@@H]4C[C@H]5O[C@]56[C@@H](O)C=CC(=O)[C@]6(C)[C@H]4CC[C@]23CO)C1`
Result string: 1.93

Query string: Given the molecule CC1=C(C)C(=O)O[C@@H]([C@]2(C)OC(O)[C@]34CC[C@H]5[C@@H](C[C@H]6O[C@]67[C@@H](O)C=CC(=O)[C@]57C)[C@@H]3CC[C@H]24)C1 (some centres not stated) [WITHAPHYSALIN F] , write its reported IC50.
Result string: 4.15

Query string: Report IC50 for `C[C@H]1C[C@H]([C@](C)(O)[C@H]2CC[C@H]3[C@@H]4C[C@H]5O[C@]56[C@@H](O)C=CC(=O)[C@]6(C)[C@H]4CC[C@]23C)OC(=O)[C@@H]1C`
Result string: 5.5

Query string: Given the molecule CC1=C(CO)C(=O)O[C@@H]([C@@H](C)[C@H]2CC[C@H]3[C@@H]4C[C@@H](O)C5=CC=CC(=O)[C@]5(C)[C@H]4CC[C@]23C)C1 [JABOROSALACTONE B] , write its reported IC50.
Result string: 38.5

###

Test: Chemoprevention index, ratio of IC50 for mouse Hepa-1c1c7 cells to drug level required to double specific quinone reductase activity in mouse Hepa-1c1c7 cells
Type: functional
test_readout: Ratio

Examples from the recorded data:
{"columns": ["compound", "Ratio"],
 "data": [
  ["CC(=O)C1=CC[C@H]2[C@@H]3[C@@H]4O[C@@H]4[C@@]4(O)CC=CC(=O)[C@]4(C)[C@H]3CC[C@]12C", ">1.7"],
  ["CC1=C(CO)C(=O)O[C@@H]([C@@H](C)[C@H]2CC[C@H]3[C@@H]4C[C@@H](O)[C@@]5(O)CC=CC(=O)[C@]5(C)[C@H]4CC[C@]23C)C1", ">1.7"],
  ["CC1=C(C)C(=O)O[C@@H](/C(C)=C2\\[C@H](O)C[C@H]3[C@@H]4[C@@H]5O[C@@H]5[C@@]5(O)CC=CC(=O)[C@]5(C)[C@H]4CC[C@]23C)C1 [EXODECONOLIDE B]", ">2.6"],
  ["CC(=O)O[C@H]1C=CC(=O)[C@]2(C)[C@H]3CC[C@]45C(O)O[C@@](C)([C@H]6C[C@H](C)[C@@H](C)C(=O)O6)[C@H]4CC[C@H]5[C@@H]3C[C@H]3O[C@]132 (stereo not given in full)", ">1.4"],
  ["CC(=O)O[C@H]1C=CC(=O)[C@]2(C)[C@H]3CC[C@]45C(=O)O[C@@](C)([C@H]6C[C@H](C)[C@@H](C)C(=O)O6)[C@H]4CC[C@H]5[C@@H]3C[C@H]3O[C@]132", ">1.5"],
  ["CC1=C(C)C(=O)O[C@@H]([C@](C)(O)[C@H]2CC[C@H]3[C@@H]4C[C@H]5O[C@]56[C@@H](O)C=CC(=O)[C@]6(C)[C@H]4CC[C@]23CO)C1", 7.2]
]}

Query string: Provide one value: measured Ratio of C[C@@H](c1ccc2c(c1)CC[C@H]1[C@H]2C[C@@H]2O[C@@]23CC=CC(=O)[C@]13C)[C@@H]1C[C@@H]2O[C@@H]2[C@H](O)O1 [SALPICHROLIDE A]
Result string: >4

Query string: Query Ratio for C[C@@H](c1cc(O)c2c(c1)CC[C@H]1[C@H]2C[C@@H]2O[C@@]23CC=CC(=O)[C@]13C)[C@@H]1C[C@@H]2O[C@@H]2[C@H](O)O1 [SALPICHROLIDE G]
Result string: >3.7

Query string: Input `CC1=C(C)C(=O)O[C@@H]([C@@H](C)[C@H]2[C@@H](O)C[C@H]3[C@@H]4C[C@H]5O[C@]56[C@@H](O)C=CC(=O)[C@]6(C)[C@H]4CC[C@]23C)C1` , output reported Ratio.
Result string: >2.1

Query string: Could you please provide reported Ratio for CC1=C(C)C(=O)O[C@@H]([C@@H](C)[C@H]2CC[C@H]3[C@@H]4[C@@H]5O[C@@H]5[C@@]5(O)CC=CC(=O)[C@]5(C)[C@H]4C[C@H](O)[C@]23C)C1 [WITHAFEROXOLIDE] ? Thanks!
Result string: >2.9

###

Each record here notes measured IC50.
Assay: Growth inhibition of mouse Hepa-1c1c7 cells by crystal violet staining
Format: cell-based
Conditions: Mus musculus, Hepa-1c1c7

{"columns": ["compound", "IC50"],
 "data": [
  ["CC1=C(C)C(=O)O[C@@H](/C(C)=C2\\[C@H](O)C[C@H]3[C@@H]4[C@@H]5O[C@@H]5[C@@]5(O)CC=CC(=O)[C@]5(C)[C@H]4CC[C@]23C)C1 [EXODECONOLIDE B]", "> 42.7 µM"]
]}

Query string: Supply IC50 value. Item: CC1=C(C)C(=O)O[C@@H]([C@](C)(O)[C@H]2CC[C@H]3[C@@H]4[C@@H]5O[C@@H]5[C@@]5(O)CC=CC(=O)[C@]5(C)[C@H]4CC[C@]23C)C1 [WITHANOLIDE A]
Result string: > 42.5 µM

Query string: Please supply the value of reported IC50 for the item CO[C@]12CC=CC(=O)[C@]1(C)[C@H]1C[C@@]3(O)[C@@]4(C)[C@@H](CC[C@@]4(O)[C@H](C)[C@@H](O)[C@]34OC(=O)C(C)=C4C)[C@@H]1C[C@H]2O [JABOROSALACTONE 12]
Result string: > 39 µM

Query string: Determine from records and report IC50 for C[C@@H](c1cc(O)c2c(c1)CC[C@H]1[C@H]2C[C@@H]2O[C@@]23CC=CC(=O)[C@]13C)[C@@H]1C[C@@H]2O[C@@H]2[C@H](O)O1 [SALPICHROLIDE G]
Result string: > 42.9 µM

Query string: # return recorded IC50 for input CC1=C(C)C(=O)O[C@@H](/C(C)=C2\[C@@H](O)C[C@H]3[C@@H]4[C@@H]5O[C@@H]5[C@@]5(O)CC=CC(=O)[C@]5(C)[C@H]4CC[C@]23C)C1 [EXODECONOLIDE A]
Result string: > 42.7 µM
